# credit: patent US12234236B1

Please provide measured pEC50 for the entries that follow.
# system: UniProtKB P43220
# Sequence (P43220 24-463): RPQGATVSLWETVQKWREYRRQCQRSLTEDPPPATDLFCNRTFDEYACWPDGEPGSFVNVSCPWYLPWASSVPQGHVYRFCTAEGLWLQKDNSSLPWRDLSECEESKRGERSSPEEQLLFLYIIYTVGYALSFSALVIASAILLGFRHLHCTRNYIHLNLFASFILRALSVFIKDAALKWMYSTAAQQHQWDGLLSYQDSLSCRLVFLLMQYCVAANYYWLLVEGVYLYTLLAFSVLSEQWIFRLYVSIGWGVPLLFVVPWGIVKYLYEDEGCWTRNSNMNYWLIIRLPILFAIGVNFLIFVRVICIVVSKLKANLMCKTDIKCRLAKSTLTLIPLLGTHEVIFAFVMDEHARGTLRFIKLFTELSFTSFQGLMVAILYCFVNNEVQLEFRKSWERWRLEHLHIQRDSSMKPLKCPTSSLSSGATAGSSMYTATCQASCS
# assay.name: hGLP-1R agonist cAMP stimulation assay
# condition.info: Flp-In-293-GLP1R cells, 30 minutes at 37° C.
Formally, pEC50 is defined as -log10 of the concentration c, with c in mol/L.

Request: // query pEC50 value for entry Cc1cc(-n2nc3c(c2-n2ccn(-c4ccc5c(cnn5C5CC5)c4F)c2=O)[C@H](C)N(C(=O)c2cc4cc(C5CCOCC5)ncc4n2[C@@]2(c4noc(=O)[nH]4)C[C@@H]2C)CC3)cc(C)c1F [Compound 66]
Result: 10.85

Request: Can you handle Cc1cc(-n2nc3c(c2-n2ccn(-c4ccc5c(c4)NCCS5(=O)=O)c2=O)[C@H](C)N(C(=O)c2cc4cc(C5CCOCC5)ccc4n2[C@@]2(c4noc(=O)[nH]4)C[C@@H]2C)CC3)cc(C)c1F [Compound 55] next?
Result: 9.82

Request: Can you handle Cc1cc(-n2nc3c(c2-n2ccn(-c4ccc5c(cnn5C5CC5)c4F)c2=O)[C@H](C)N(C(=O)c2cc4nc(C5CCOCC5)ccc4n2[C@@]2(c4noc(=O)[nH]4)C[C@@H]2C)CC3)cc(C)c1F (single isomer, unassigned) [Compound 19] next?
Result: 10.92

Request: Can you handle CCP(=O)(CC)Cc1ccc(-n2ccn(-c3c4c(nn3-c3cc(C)c(F)c(C)c3)CCN(C(=O)c3cc5cc(C6CCOCC6)ccc5n3[C@@]3(c5noc(=O)[nH]5)C[C@@H]3C)[C@H]4C)c2=O)cc1 [Compound 80] next?
Result: 10.42

Request: Can you handle Cc1cc(-n2nc3c(c2-n2ccn(-c4ccc5c(cnn5CC5CC5)c4F)c2=O)[C@H](C)N(C(=O)c2cc4cc([C@@H]5CCOC(C)(C)C5)ccc4n2[C@@]2(c4noc(=O)[nH]4)C[C@@H]2C)CC3)cc(C)c1F [Compound 18] next?
Result: 9.58
